# Test system: arteria saphena
# assayRemarks: Vasorelaxant action in vitro (phenylephrin-contracted artery rings)
# Design: species or system Rabbits
# assayContext: Oryctolagus cuniculus; rabbit arteria saphena rings, contraction induced by phenylephrin; read-out: IC50 (concentration reducing the phenylephrin-induced contraction by 50%)
pIC50: −log10 of the molar value.
assayReadout: pIC50

1) Cc1ccc(/C=C/C(CCCCC(=O)O)Cc2ccc(C(=O)O)cc2)c(OCc2ccccc2)c1 (stereo not drawn) :: 6.95
2) O=C(O)CCCCC(/C=C/c1ccccc1OCCCCCc1ccccc1)Cc1ccccc1C(=O)O (stereo not drawn) :: 6.22
3) O=C(O)CCCCC(CCCc1cccc(OCCCCc2ccccc2)c1)Cc1ccc(C(=O)O)cc1 (stereo not drawn) :: 5.11
4) O=C(O)CCCCC(/C=C/c1ccccc1CCc1ccccc1)Cc1ccc(C(=O)O)cc1 (stereo not drawn) :: 7.59
5) O=C(O)CCCCC(CCc1ccccc1CCc1ccccc1)Cc1ccc(C(=O)O)cc1 (stereo not drawn) :: 7.39

I = N#Cc1ccc(CC(/C=C/c2ccccc2OCCCCCc2ccccc2)CCCCC(=O)O)cc1 (stereo not drawn)
II = CCc1ccc(COc2ccccc2/C=C/C(CCCCC(=O)O)Cc2ccc(C(=O)O)cc2)cc1 (stereo not drawn)
Request: Between I and II , whose recorded pIC50 is greater? Bench note: the answer is the label of the chosen record.
Response: II

A = O=C(O)CCCCC(/C=C/c1ccccc1OCCCOc1ccccc1)Cc1ccc(C(=O)O)cc1 (stereo not drawn)
B = O=C(O)CCCCC(/C=C/c1ccccc1OCCCCCc1ccccc1)Cc1ccc(C(=O)O)cc1 (stereo not drawn)
C = O=C(O)CCCCC(CCc1ccccc1OCCCCCc1ccccc1)Cc1ccc(C(=O)O)cc1 (stereo not drawn)
Request: Please give the order of these molecules when sorted by pIC50, largest value leading. Returns: the labels listed in the requested order.
Response: C, B, A

A = CC(C)(C)c1ccc(COc2ccccc2/C=C/C(CCCCC(=O)O)Cc2ccc(C(=O)O)cc2)cc1 (stereo not drawn)
B = O=C(O)CCCCC(/C=C/c1ccccc1OCc1ccccc1Cl)Cc1ccc(C(=O)O)cc1 (stereo not drawn)
Request: When their pIC50 values are compared, which is larger, A or B ? Please reply using the label of the selected record.
Response: A
(A: 9.46, B: 8.06)

The measurements presented in this section are drawn from patent US6864287B1.
